The measurements presented in this section are drawn from patent US6881553B2.

READOUT_NAME: pKi
Would you please state pKi, meaning minus log10 of the concentration in mol/L, as a bare number?

Query :: Give pKi (M. tuberculosis InhA enoyl reductase (Mycobacterium tuberculosis, UniProt P9WGR1)) of the following compound: Cc1ccc(C)c(OCCCC(C)(C)C(=O)SCCNC(=O)CCNC(=O)[C@H](O)C(C)(C)COP(=O)(O)OP(=O)(O)OC[C@H]2O[C@@H](n3cnc4c(N)ncnc43)[C@H](O)[C@@H]2OP(=O)(O)O)c1
Result :: 3.68

====

TARGET_SYSTEM: L. pneumophila FabX enoyl reductase (His-tagged FabX)
CONDITION_LABEL: competitive with regard to DCA (dodecenoyl-CoA) substrate; 100 μM NADH, 100 mM NaPO4 pH 7.4; value (+/- spread)
READOUT_NAME: pKi
Note on pKi: it is the negative log10 of concentration, concentration in mol/L.

Query :: Please report the recorded pKi for Cc1ccc(C)c(OCCCC(C)(C)C(=O)SCCNC(=O)CCNC(=O)[C@H](O)C(C)(C)COP(=O)(O)OP(=O)(O)OC[C@H]2O[C@@H](n3cnc4c(N)ncnc43)[C@H](O)[C@@H]2OP(=O)(O)O)c1 [GFZ] .
Result :: 3.91
